Tested on: OVCAR-8 ovarian
Experiment: NCI tumour cell line growth inhibition, 48 h
Attribute: TGI
readout_kind: TGI

• CCC(C)(C)c1ccc(OCCCCNC(=O)c2ccc3ccccc3c2O)c(C(C)(C)CC)c1 = > 100 µM
• CC(=O)NC1C(OCc2ccccc2)OC(CO)C(O)C1OCC(=O)N[C@@H](C)C(=O)N[C@H](CCC(=O)NCCCNc1c2ccccc2nc2cccc([N+](=O)[O-])c12)C(N)=O (stereo partly specified) = 1.71 µM
• CC(C)c1cc2c(c(O)c1O)[C@@]1(C(=O)O)CCCC(C)(C)[C@@H]1CC2 = 30.1 µM
• Cc1nc(C)c(C(=O)NNC(=O)C[N+](C)(C)C)cc1C(=O)NNC(=O)C[N+](C)(C)C = > 100 µM
• CC1(C)CC(=O)C(C(CC(c2ccccc2)c2cc3c(cc2O)OCO3)C2=C(O)CC(C)(C)CC2=O)=C(O)C1 (stereo unspecified) = > 10 µM
• CC(=O)Nc1ccc(-c2csc(Nc3cccc(-c4csc(C)n4)c3)n2)cc1 = 20.8 µM
• CC1CC2CCCC(O)=C2C(=O)O1 (stereo unspecified) = > 100 µM
• O=c1oc2ccc(-c3ccc(F)cc3F)cc2c(=O)n1-c1cccc(C(F)(F)F)c1 = > 100 µM
• COC(=O)[C@]12CC[C@@H](C)[C@H](C)[C@@H]1C1=CC[C@@H]3[C@@]4(C)C[C@@H](O)[C@H](O)[C@@](C)(CO)C4=CC[C@@]3(C)[C@]1(C)CC2 = 33.8 µM
• C/C(N=NC(=S)N1CC2CCC(CC2)C1)=C1\C=CC=CN1O = > 100 µM
• O=C(NC[C@H](O)CN1CCc2ccccc2C1)c1cc(NC2COC2)ncn1 = > 100 µM
• N#C/C(=C\c1ccc2ccccc2c1)C(=O)c1ccccc1 = > 46.4 µM
• O=C1CCC(c2ccccc2)=NN1c1nsc2ccccc12 = > 100 µM
• CC(C)SC(=S)Sc1c(Cl)c(Cl)nc(Cl)c1Cl = 10.5 µM
• On1c(-c2ccccc2)c(-c2ccccc2N2CCCC2)c2ccccc21 = > 100 µM
• COc1ccc(-c2ccc(=O)oc2C#Cc2cc(OC)c(OC)c(OC)c2)cc1O = > 100 µM
• O=C(O)CN1CCNCCN(CC(=O)O)CCN(CC(=O)O)CCNCC1 = > 100 µM
• NC(N)=N/N=C/c1c(Cl)cccc1Cl = > 100 µM
• COC(=O)c1c2c(c(C)[n+]([O-])c1C)C(=O)C=C(NCc1ccc(F)cc1)C2=O = 1.93 µM
• Clc1ccc(-c2nnc3sc4nc5ccccc5c-4nn23)c(Cl)c1 = > 100 µM
• O=C(CCn1ccnc1[N+](=O)[O-])NCCCn1ccnc1[N+](=O)[O-] = > 100 µM
• COc1ccc2/c(=C/c3ccc(N(C)C)cc3)c3cc(-c4ccccc4)[n+](C)n3c2c1 = 0.731 µM
• c1ccc2c(OCCSCCCCCCCCCCSCCOc3cccc4ccccc34)cccc2c1 = > 100 µM
• O=C(O)[C@H]1CCCN1CP(=O)(O)CN1CCC[C@@H]1C(=O)O = > 100 µM
• CC(O)CNC(=O)C(C)Oc1ccc(OCC2CCCCC2)cc1 (stereo unspecified) = > 100 µM
• COc1cc2c(cc1OC)C(C(c1ccccc1)c1ccccc1)N(C)CC2 (stereo unspecified) = > 100 µM
• COc1cccc(N2C(Cl)C(=O)C2c2c[nH]c3ccccc23)c1 (stereo unspecified) = > 100 µM
• CC(=NNC(=S)Nc1ccccc1)c1cccc(C(C)=NNC(=S)Nc2ccccc2)n1 = > 50.2 µM
• COc1ccc(C2OC(c3ccncc3)=NN2C)cc1F (stereo unspecified) = > 100 µM
• COC(C)(C)C1(O)CC[C@@H](C)CC1=O (stereo partly specified) = > 100 µM
• CCC[CH2][Sn]([CH2]CCC)([O]C(=O)c1ccc(OC)c(OC)c1OC)[O][Sn]([CH2]CCC)([CH2]CCC)[O]C(=O)c1ccc(OC)c(OC)c1OC = 0.979 µM
• COc1ccc2nc3ccccc3c(NCc3ccc(F)cc3)c2c1 = 13.6 µM
• Oc1cc(Cl)cc2cccnc12 = > 100 µM
• CCCCCCCCCCCCCCCC(=O)OCCOCCOCCOCc1ccccc1 = > 100 µM
• O=C1NC(N2CCOCC2)=N/C1=C\c1ccco1 = > 100 µM
• CNc1cc2c(c3ccccc13)C(CCl)CN2C(=O)c1cc2cc(OC)c(OC)c(OC)c2[nH]1 (stereo unspecified) = 0.0124 µM
• Cc1cc(N[C@@H]2CCC[C@H](Nc3ccnc4cc(Cl)ccc34)C2)nc(N2CCCCCC2)n1 = 6.1 µM
• CC(=O)ON1CCCC(P(=O)(OCCSC(=O)C(C)(C)C)OCCSC(=O)C(C)(C)C)C1=O (stereo unspecified) = > 100 µM
• O=c1[nH][nH]c(=O)n1CCCCCCn1c(=O)[nH][nH]c1=O = > 100 µM
• Cc1c2n(c(=O)[nH]c1=O)C1OC(CO)C(N=[N+]=[N-])C1O2 (stereo unspecified) = > 100 µM
• COc1cc(N=Nc2ccc(O)c3ncccc23)c2ncccc2c1 = > 100 µM
